The measured values listed here are drawn from ChEMBL document CHEMBL2218924.

- test-system: Mitogen-activated protein kinase kinase kinase kinase 2 (Homo sapiens) (UniProt Q12851)
- Sequence (Q12851 whole entry): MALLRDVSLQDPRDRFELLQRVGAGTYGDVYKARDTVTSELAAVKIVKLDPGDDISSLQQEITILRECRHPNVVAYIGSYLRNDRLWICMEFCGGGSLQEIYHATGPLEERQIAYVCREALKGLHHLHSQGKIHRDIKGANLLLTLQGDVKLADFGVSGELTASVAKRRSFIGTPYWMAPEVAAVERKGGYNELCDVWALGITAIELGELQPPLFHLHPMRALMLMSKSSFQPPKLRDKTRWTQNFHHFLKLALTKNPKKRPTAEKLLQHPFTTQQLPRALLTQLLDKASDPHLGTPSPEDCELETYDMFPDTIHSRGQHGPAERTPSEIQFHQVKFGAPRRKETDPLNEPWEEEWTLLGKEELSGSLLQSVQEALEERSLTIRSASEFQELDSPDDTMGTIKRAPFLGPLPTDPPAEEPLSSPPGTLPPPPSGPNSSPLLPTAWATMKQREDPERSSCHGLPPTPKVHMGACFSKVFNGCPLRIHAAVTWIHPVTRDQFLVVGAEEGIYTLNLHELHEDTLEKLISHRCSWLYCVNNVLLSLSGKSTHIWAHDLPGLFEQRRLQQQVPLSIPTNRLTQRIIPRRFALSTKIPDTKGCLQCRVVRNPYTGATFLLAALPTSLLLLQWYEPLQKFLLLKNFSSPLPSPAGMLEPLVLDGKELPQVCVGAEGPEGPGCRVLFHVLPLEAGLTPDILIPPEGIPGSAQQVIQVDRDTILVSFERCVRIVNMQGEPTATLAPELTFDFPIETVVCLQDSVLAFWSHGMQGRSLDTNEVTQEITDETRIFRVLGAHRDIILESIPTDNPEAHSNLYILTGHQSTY
- condition-notes: at 10 µM
The reader will find reported residual activity values listed item by item below.
Output spec: scalar in %, unitless text.

Nc1nccc(-c2c(-c3ccc(F)cc3)ncn2C2CCNCC2)n1 | 61
O=C(c1ccccc1)c1ccc(N2CCOCC2)cc1O | 89
Cn1sc(=O)n(Cc2ccccc2)c1=O | 81

Next, consider the following molecule.
Form field residual activity, entry `Oc1cccc(-c2nc(N3CCOCC3)c3oc4ncccc4c3n2)c1` : 85

----------
- test-system: Serine/threonine-protein kinase SIK1 (Homo sapiens)
- condition-notes: at 1 µM
The compounds listed here are annotated with their residual activity.
Express your answer in %, writing the number without its unit.

Past entries and their recorded results:
O=C1Cc2c([nH]c3ccc([N+](=O)[O-])cc23)-c2ccccc2N1 | 100
O=C1Cc2c([nH]c3ccc(Br)cc23)-c2ccccc2N1 | 91
Oc1cccc(-c2nc(N3CCOCC3)c3oc4ncccc4c3n2)c1 | 91

// recorded residual activity for `O=S(=O)(c1cccc2cnccc12)N1CCCNCC1` : 126

Entry under test: O=C(NC(NC(=S)Nc1ccc(F)c([N+](=O)[O-])c1)C(Cl)(Cl)Cl)C(c1ccccc1)c1ccccc1 (stereo not given) . Its residual activity was 136
